# efflux ratio at 120 min values compiled below
target: P-gp (human MDR1) (Homo sapiens, UniProt P08183); construct: expressed in transfected cells; host or cells: IPEC-J2 (porcine intestinal epithelial cells), previously established IPEC-J2 MDR1 line; test: Bidirectional transport across IPEC-J2 MDR1 cell monolayers; format: in vitro ADME; conditions: pH 7.4, Figure 5 comparison series
Sequence (P08183 whole entry): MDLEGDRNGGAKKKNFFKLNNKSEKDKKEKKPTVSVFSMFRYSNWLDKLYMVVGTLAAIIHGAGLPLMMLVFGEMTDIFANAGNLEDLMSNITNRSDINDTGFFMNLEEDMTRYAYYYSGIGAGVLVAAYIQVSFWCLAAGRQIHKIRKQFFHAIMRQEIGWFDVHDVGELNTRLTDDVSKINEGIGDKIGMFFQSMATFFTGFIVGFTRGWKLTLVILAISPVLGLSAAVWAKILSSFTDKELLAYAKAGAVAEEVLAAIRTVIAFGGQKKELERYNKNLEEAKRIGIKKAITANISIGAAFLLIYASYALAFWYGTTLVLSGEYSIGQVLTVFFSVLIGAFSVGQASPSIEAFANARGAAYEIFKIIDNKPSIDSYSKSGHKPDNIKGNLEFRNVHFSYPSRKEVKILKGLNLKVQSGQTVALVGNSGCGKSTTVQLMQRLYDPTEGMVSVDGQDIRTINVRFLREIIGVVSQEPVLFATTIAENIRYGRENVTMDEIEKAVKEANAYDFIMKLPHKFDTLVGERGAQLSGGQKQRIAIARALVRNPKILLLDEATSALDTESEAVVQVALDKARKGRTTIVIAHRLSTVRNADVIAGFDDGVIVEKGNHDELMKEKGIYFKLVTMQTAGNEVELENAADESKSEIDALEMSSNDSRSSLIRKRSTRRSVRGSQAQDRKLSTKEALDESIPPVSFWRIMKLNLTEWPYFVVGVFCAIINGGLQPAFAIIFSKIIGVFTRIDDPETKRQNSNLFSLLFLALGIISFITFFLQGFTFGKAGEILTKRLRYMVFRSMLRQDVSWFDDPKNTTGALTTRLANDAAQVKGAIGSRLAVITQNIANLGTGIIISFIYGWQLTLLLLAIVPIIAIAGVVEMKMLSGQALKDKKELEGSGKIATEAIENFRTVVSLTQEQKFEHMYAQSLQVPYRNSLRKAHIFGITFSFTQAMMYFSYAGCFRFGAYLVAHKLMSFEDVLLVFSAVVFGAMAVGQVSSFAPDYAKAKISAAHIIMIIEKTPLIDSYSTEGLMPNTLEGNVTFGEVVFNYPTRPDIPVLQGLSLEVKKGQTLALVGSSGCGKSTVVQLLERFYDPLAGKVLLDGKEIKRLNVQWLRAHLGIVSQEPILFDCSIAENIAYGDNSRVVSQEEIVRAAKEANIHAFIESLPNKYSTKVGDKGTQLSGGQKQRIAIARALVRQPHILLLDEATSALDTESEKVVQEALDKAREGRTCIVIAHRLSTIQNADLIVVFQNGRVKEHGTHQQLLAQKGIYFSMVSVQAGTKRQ

item smiles	study system	efflux ratio at 120 min
CC[C@]1(O)C[C@@H]2CN(CCc3c([nH]c4ccccc34)[C@@](C(=O)OC)(c3cc4c(cc3OC)N(C)[C@H]3[C@@](O)(C(=O)OC)[C@H](OC(C)=O)[C@]5(CC)C=CCN6CC[C@]43[C@@H]65)C2)C1	P-gp (human MDR1) (Homo sapiens, UniProt P08183)	12.4
OC[C@@H](O)[C@@H](O)[C@H](O)[C@H](O)CO	P-gp (human MDR1) (Homo sapiens, UniProt P08183)	1.4

====

tested on: P-gp (rat Mdr1a); assay: in vitro; conditions: pH 7.4, permeability in the A–B direction, early passages (5–7)
measure: Papp A→B at 120 min

item smiles	endpoint value
C[C@H]1O[C@@H](O[C@H]2[C@@H](O)C[C@H](O[C@H]3[C@@H](O)C[C@H](O[C@H]4CC[C@@]5(C)[C@H](CC[C@@H]6[C@@H]5C[C@@H](O)[C@]5(C)[C@@H](C7=CC(=O)OC7)CC[C@]65O)C4)O[C@@H]3C)O[C@@H]2C)C[C@H](O)[C@@H]1O	0.37 ×10⁻⁶ cm/s
